test-target: 5-HT2C receptor (Homo sapiens, UniProt P28335)
Sequence (P28335 33-458): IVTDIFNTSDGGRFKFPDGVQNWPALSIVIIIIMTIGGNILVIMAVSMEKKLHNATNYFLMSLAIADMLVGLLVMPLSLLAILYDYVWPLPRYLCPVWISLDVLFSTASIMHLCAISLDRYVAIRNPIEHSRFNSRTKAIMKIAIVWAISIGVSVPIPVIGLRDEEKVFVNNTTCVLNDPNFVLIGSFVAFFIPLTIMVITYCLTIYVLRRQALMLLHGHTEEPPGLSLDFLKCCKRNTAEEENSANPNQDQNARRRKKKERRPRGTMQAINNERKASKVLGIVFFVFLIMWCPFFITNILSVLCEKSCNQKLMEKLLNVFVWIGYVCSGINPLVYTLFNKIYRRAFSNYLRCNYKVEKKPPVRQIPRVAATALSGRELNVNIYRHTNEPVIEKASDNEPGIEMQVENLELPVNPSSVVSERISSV
pIC50: −log10 of the molar value.
measurement-label: pIC50

molecule Cl.NC(N)=NC(=O)c1ccc2c(c1)C(O)c1ccccc1-2 (stereo not shown) [Preparation 3, hydrochloride] , pIC50 observed: ≤ 6.00

* * *

test-target: human 5-HT7 receptor (Homo sapiens)
Sequence (P34969 whole entry): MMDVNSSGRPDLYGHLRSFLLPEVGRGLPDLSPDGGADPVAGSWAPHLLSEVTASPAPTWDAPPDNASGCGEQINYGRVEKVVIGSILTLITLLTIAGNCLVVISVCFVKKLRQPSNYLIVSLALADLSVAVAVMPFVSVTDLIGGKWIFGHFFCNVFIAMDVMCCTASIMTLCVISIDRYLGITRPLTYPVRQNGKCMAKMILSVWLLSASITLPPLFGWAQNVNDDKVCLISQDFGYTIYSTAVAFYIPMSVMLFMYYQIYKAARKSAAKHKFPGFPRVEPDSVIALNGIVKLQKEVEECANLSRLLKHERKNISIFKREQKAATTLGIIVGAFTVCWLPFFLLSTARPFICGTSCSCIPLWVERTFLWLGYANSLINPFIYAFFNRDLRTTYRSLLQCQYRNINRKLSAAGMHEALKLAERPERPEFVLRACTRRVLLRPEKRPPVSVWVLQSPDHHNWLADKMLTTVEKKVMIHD
measurement-label: pKi
Notebook: values listed as pKi are -log10 of the concentration (mol/L).

compound Cl.NC(N)=NC(=O)c1ccc2c(c1)C(O)c1ccccc1-2 (centres unmarked) [Preparation 3, hydrochloride] , pKi observed: 7.75

* * *

test-target: 5-HT6 receptor (Homo sapiens)
Sequence (P50406 whole entry): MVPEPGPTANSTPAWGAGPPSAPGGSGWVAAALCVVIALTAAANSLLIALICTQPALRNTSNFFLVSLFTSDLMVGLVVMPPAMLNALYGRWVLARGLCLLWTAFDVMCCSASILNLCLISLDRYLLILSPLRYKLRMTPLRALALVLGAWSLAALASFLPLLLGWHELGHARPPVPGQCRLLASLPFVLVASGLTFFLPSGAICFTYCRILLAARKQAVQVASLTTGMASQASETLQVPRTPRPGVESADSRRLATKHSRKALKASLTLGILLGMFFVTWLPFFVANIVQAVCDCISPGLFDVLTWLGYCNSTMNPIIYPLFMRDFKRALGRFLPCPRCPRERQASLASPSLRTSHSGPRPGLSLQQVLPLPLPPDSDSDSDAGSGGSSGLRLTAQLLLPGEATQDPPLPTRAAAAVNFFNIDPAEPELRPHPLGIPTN
pIC50: −log10 of the molar value.
measurement-label: pIC50

The compound Cl.NC(N)=NC(=O)c1ccc2c(c1)C(O)c1ccccc1-2 (stereo not shown) [Preparation 3, hydrochloride] , tested on 5-HT6 receptor (Homo sapiens), showed pIC50 of ≤ 6.00

* * *

test-target: UniProt P28223
Sequence (P28223 whole entry): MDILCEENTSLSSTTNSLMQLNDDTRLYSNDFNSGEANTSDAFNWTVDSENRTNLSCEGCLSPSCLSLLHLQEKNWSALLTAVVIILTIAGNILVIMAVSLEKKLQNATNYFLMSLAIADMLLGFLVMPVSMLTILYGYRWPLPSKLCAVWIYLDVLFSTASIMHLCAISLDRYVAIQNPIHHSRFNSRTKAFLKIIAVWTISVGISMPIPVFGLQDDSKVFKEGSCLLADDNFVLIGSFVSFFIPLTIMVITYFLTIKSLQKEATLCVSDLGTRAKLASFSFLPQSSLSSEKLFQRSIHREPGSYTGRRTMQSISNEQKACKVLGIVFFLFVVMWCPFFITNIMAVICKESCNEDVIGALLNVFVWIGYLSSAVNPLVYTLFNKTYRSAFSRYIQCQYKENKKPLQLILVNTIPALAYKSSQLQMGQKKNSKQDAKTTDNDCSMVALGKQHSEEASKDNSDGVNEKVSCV
pIC50: −log10 of the molar value.
measurement-label: pIC50

The molecule Cl.NC(N)=NC(=O)c1ccc2c(c1)C(O)c1ccccc1-2 (stereo not shown) [Preparation 3, hydrochloride] , tested on UniProt P28223, showed pIC50 of ≤ 6.00

* * *

test-target: α1 receptor
experiment-description: Affinity for other receptors: α1
Source text: […]
measurement-label: IC50

compound Cl.NC(N)=NC(=O)c1ccc2c(c1)C(O)c1ccccc1-2 (stereo not shown) [Preparation 3, hydrochloride] , IC50 observed: ≥ 1 µM

* * *

test-target: M1 receptor (Homo sapiens, UniProt P11229)
Sequence (P11229 1-460): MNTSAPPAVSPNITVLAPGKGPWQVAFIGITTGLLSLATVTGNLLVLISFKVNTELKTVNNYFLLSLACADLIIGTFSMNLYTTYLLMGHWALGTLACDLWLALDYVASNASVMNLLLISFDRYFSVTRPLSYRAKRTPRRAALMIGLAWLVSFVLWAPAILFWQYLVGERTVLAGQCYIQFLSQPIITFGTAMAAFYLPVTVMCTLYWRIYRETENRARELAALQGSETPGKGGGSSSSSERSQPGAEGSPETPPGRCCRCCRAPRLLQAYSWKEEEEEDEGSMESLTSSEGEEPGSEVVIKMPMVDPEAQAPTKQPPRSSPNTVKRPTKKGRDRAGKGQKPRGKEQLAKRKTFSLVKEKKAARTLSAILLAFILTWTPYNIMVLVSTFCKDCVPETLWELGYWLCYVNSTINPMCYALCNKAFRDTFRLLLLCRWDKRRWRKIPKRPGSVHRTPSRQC
measurement-label: IC50

compound Cl.NC(N)=NC(=O)c1ccc2c(c1)C(O)c1ccccc1-2 (stereo not shown) [Preparation 3, hydrochloride] , IC50 observed: ≥ 1000 nM

The values you see were collected from patent US20080161419A1.
